experiment: NCI Yeast Anticancer Drug Screen. Data for the mlh1 rad18 strain (AID 175); settings: S. cerevisiae mlh1 rad18 strain growth inhibition; at 50.0 µM; active compounds read high
This is part of a sample that, as a whole, favours compounds with a hit. Of some 79,000 tested, about 15% had one in any assay.
Examples of molecules with documented growth inhibition follow.

- structure-smiles: "Cc1ccc(NC(=S)N(C)C)cc1"
  growth inhibition [%]: -23.9
- structure-smiles: "NS(=O)(=O)/C=C(\\Cl)c1ccccc1"
  growth inhibition [%]: -0.55
- structure-smiles: "CN(C)CCNC(=O)c1nc([N+](=O)[O-])cn1C"
  growth inhibition [%]: -69.2
- structure-smiles: "CNC(=O)CC(=O)NC"
  growth inhibition [%]: -10.1
- structure-smiles: "C#CCC[N+](C)(C)C"
  growth inhibition [%]: 4.55
- structure-smiles: "O=c1c(Br)c(-c2ccccc2)[nH]c2ccccc12"
  growth inhibition [%]: 7.7
- structure-smiles: "Cn1cnc([N+](=O)[O-])c1C(=O)NCc1ccccc1"
  growth inhibition [%]: -9.05

====

experiment: NCI Yeast Anticancer Drug Screen. Data for the cln2 rad14 strain (AID 165);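 further: 0% = growth equal to vehicle treated cultures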; conditions: S. cerevisiae cln2 rad14 strain, at 50.0 µM, active compounds read high
Compounds without any hit were thinned out: in the full panel of roughly 79,000, 15% have a hit. Where a SMILES comes first, the peptide text is derived from it. The star is where a group is joined. Boc = CC(C)(C)OC(=O)*
Examples of compounds with documented growth inhibition follow.

- compound: "CCCNC(C)C(C)O (centres undefined)"
  growth inhibition / %: -16.3
- compound: "Cc1cnc(Sc2ncccc2[N+](=O)[O-])nc1"
  growth inhibition / %: 25.6
- compound: "COc1cc(C[C@H]2C(=O)OCC2Cc2ccc(OC)c(OC)c2)ccc1O (some centres undefined)"
  growth inhibition / %: -5.2
- compound: "CCCCCCCCCCCCCCCCCC(=O)OCC1CO1 (centres undefined)"
  growth inhibition / %: 13.2
- compound: "NC(=O)SCC(N)C(=O)O (centres undefined)"
  growth inhibition / %: 3.55
- compound: "COC1=C(OC)C(=O)C(COC2CCCCO2)=CC1=O (centres undefined)"
  growth inhibition / %: 87.5
- compound: "CC1CCC2OC23C(=O)C2OC2C(C(C)(C)O)C13C (centres undefined)"
  growth inhibition / %: 2.5
- compound: "CN1CCN(Cc2cc(C(C)(C)C)cc(-c3ccccc3)c2O)CC1"
  growth inhibition / %: 6.45
- compound: "O=S1CCS(=O)CCS(=O)CC1 (centres undefined)"
  growth inhibition / %: -18.6
- compound: "COc1ccc(C)cc1CC(=O)O"
  growth inhibition / %: 4.1
- compound: "COCc1onc(-c2ccc(OC)cc2)c1-c1ccc(OC)cc1"
  growth inhibition / %: 30.9
- compound: "CCOC(=O)NCC(Cl)(Cl)Cl"
  growth inhibition / %: -51.4
- compound: "O=c1ccc2c(-c3ccccc3O)c3ccc(O)cc3oc-2c1"
  growth inhibition / %: 86.9
- compound: "COc1ccc2cc(C(C)C(O)c3cc(F)c(F)c(F)c3F)ccc2c1 (centres undefined)"
  growth inhibition / %: 0.15
- compound: "CC(C)N=C(c1ccccc1)N(O)c1ccccc1"
  growth inhibition / %: -10.3
- compound: "CC(C)=CCOc1ccc(-c2coc3cc4c(c(O)c3c2=O)C=CC(C)(C)O4)cc1"
  growth inhibition / %: 13.3
- compound: "Cc1cc(=O)oc2cc(OCCCOc3ccc4c(C)cc(=O)oc4c3)ccc12"
  growth inhibition / %: -4.1
- compound: "O=C(O)CCCC(=O)c1ccccc1"
  growth inhibition / %: -9.05
- compound: "CCOC(=O)c1cc(C)nc2c1c(=O)n(-c1ccccc1)c(=O)n2CCCCN1CCN(c2ccccc2)CC1"
  growth inhibition / %: 3.25
- compound: "CC1(C)C2CC3C(=CCC4C(=O)C5CC=C6C(CC7CC6C7(C)C)C5C(=O)C43)C1C2 (centres undefined)"
  growth inhibition / %: -20
- compound: "O=C(c1ccccc1Cl)N1CCN(c2ccccc2)CC1"
  growth inhibition / %: -28.5
- compound: "C=C(C)C(=O)NC(N)=NC#N"
  growth inhibition / %: -13.8
- compound: "COc1ccc2[nH]c3c4c(c(C)cc3c2c1)OC(C)(C)C=C4"
  growth inhibition / %: -43.3
- compound: "Ic1ccccn1"
  growth inhibition / %: -29.8
- compound: "CCOC(=O)C(CC(C)C)NC(=O)C(Cc1ccccc1)NC(=O)CNC(=O)OC(C)(C)C (stereo not drawn) (Boc-Gly-Phe-Leu-OEt; configuration not given here)"
  growth inhibition / %: -11.7
- compound: "CCOc1ccc(Cc2ccccc2)cc1"
  growth inhibition / %: 1.5
- compound: "CC(C)OC(=O)C1CCC(=O)N1 (centres undefined)"
  growth inhibition / %: -84.1
- compound: "CC1(C)C(=NN=C(N)N)C(C)(C)C1=NN=C(N)N"
  growth inhibition / %: 29.3
- compound: "C#CC(O)(CC)CCCC (centres undefined)"
  growth inhibition / %: -18.5
- compound: "CN(C)S(=O)(=O)C(c1ccccc1)C(c1ccccc1)S(=O)(=O)N(C)C (centres undefined)"
  growth inhibition / %: 2
- compound: "CN(C)Cc1cc(CN(C)C)cc(CN(C)C)c1"
  growth inhibition / %: -22.9
- compound: "Cc1ccc(S(=O)(=O)OC2CCCCCC2c2ccccc2)cc1 (centres undefined)"
  growth inhibition / %: -42.5
- compound: "COc1ccc(C(C)O)cc1 (centres undefined)"
  growth inhibition / %: 12.9
- compound: "Oc1ccc(-c2nc(-c3ccccc3)c(-c3ccccc3)[nH]2)cc1"
  growth inhibition / %: -46.3
- compound: "CC1OC(c2ccccc2)C(=O)N1C1(C)C(=O)N2CCOC21c1ccccc1 (centres undefined)"
  growth inhibition / %: 5
- compound: "CCCCCCCCCCCCCCCCN1c2ccccc2C(C)(C)C12C=Cc1cccc([N+](=O)[O-])c1O2 (centres undefined)"
  growth inhibition / %: 14.2
- compound: "Cc1cccc(N=Nc2c(C)nc(N)nc2C)c1C"
  growth inhibition / %: -37.6
- compound: "CN(C)c1ccc(/[N+]([O-])=C/C=C/C=[N+](/[O-])c2ccc(N(C)C)cc2)cc1"
  growth inhibition / %: -28.6
- compound: "CCOc1ccc(C(C)c2cc3c(cc2OC)OCO3)cc1 (centres undefined)"
  growth inhibition / %: -1.55
- compound: "COC(=O)C1CC[N-]CC1.COC(=O)C1CC[N-]CC1.[Cl][Pt+2][Cl]"
  growth inhibition / %: -24.4
- compound: "Nc1ccc(S(=O)(=O)O)cc1N"
  growth inhibition / %: -19.5
- compound: "C=CCOc1cc2c(cc1Cc1ccc3c(c1)OCO3)OCO2"
  growth inhibition / %: 9.25
- compound: "COc1cc2c(cc1OC)-c1ccc3cc4c(cc3c1N(C)C2)OCO4"
  growth inhibition / %: -4.65
- compound: "CC(C)(C)OC(=O)N[C@H]1CCN(C2CCCCC2)C1=O"
  growth inhibition / %: 7.75
- compound: "CC(CCC(=O)O)(CCC(=O)O)C(=O)O"
  growth inhibition / %: -15.6
- compound: "O=C(NC1CCC(CC2CCC(NC(=O)C34CC5CC(CC(C5)C3)C4)CC2)CC1)C12CC3CC(CC(C3)C1)C2 (centres undefined)"
  growth inhibition / %: -6.25
- compound: "Cc1cc(O)c(Br)cc1C"
  growth inhibition / %: -5.45
- compound: "Nc1cn(C2CC(O)C(CO)O2)c(=O)[nH]c1=O (centres undefined)"
  growth inhibition / %: 1
- compound: "O=C(CCCCC(=O)N1CCOCC1)N1CCOCC1"
  growth inhibition / %: -19.6
